Biological target: Serine/threonine-protein kinase 10 (Homo sapiens);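 also: mean percent inhibition of LOK (STK10)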
Conditions: at 0.1 µM
OBSERVABLE: inhibition (%)

>>> readout_value("COc1cc2ncn(-c3cc(OCc4cccs4)c(C(N)=O)s3)c2cc1OC")
75.9
>>> readout_value("COc1cc(Nc2ncc3c(C)nc(-c4cccc(C(F)(F)F)c4)n3n2)cc(OC)c1OC")
6.36
>>> readout_value("Fc1ccc(-c2ncn(C3CCNCC3)c2-c2ccnc(Oc3ccc(F)c(F)c3)n2)cc1")
4.63
>>> readout_value("C[C@@H](Oc1cc(-n2cnc3ccc(OC4CCN(C)CC4)cc32)sc1C(N)=O)c1ccccc1Cl")
50.1
>>> readout_value("COc1cc(Nc2ncc3c(C)nc(-c4cccc(Oc5ccccc5)c4)n3n2)cc(OC)c1OC")
1.18
>>> readout_value("Fc1ccc(-c2c(-c3ccncc3)nc3n2CCS3)cc1")
-1.08

====

Biological target: Tyrosine-protein kinase ABL1 (Homo sapiens) (UniProt P00519)
Sequence (P00519 whole entry): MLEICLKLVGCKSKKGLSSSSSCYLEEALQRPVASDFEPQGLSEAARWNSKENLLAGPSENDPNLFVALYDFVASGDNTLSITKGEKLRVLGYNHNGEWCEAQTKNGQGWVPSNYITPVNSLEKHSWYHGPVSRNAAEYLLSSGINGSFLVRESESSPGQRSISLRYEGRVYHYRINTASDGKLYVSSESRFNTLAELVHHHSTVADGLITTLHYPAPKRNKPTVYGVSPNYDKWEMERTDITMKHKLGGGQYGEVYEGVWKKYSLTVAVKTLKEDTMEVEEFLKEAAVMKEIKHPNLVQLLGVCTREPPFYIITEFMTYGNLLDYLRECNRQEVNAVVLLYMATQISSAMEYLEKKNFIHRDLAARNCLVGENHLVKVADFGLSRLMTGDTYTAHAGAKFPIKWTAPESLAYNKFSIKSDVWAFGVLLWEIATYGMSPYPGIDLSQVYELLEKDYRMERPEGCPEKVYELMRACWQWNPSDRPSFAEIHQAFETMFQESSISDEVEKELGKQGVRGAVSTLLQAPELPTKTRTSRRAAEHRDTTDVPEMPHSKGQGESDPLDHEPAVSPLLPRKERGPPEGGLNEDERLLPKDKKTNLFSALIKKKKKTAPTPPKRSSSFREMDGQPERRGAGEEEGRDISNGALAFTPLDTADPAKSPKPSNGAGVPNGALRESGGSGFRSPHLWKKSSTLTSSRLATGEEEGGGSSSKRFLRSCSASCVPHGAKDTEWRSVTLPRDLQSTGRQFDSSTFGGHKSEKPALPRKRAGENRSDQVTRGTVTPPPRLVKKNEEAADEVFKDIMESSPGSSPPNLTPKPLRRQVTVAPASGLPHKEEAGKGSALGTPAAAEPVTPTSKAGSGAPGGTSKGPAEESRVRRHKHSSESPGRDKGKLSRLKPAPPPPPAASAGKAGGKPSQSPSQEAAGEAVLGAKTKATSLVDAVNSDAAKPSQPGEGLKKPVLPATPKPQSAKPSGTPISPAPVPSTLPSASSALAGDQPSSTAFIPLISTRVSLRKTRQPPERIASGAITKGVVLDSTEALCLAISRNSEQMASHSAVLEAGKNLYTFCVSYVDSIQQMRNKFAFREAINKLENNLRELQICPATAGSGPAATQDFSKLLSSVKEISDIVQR
Settings: at 0.1 µM
Description: GSK_PKIS: ABL1 mean inhibition at 0.1 uM [Nanosyn]
// values below are reported inhibition
OBSERVABLE: inhibition (%)

>>> readout_value("O=C1Nc2ccc(I)cc2C1=Cc1cc(Br)c(O)c(Br)c1")
5.59
>>> readout_value("CS(=O)(=O)CCNCc1ccc(-c2ccc3ncnc(Nc4ccc(OCc5ccccc5)c(Br)c4)c3c2)o1")
3.09
>>> readout_value("NC(=O)Cc1ccccc1Oc1nccc(-c2c(-c3ccc(F)cc3)ncn2C2CCNCC2)n1")
2.7
>>> readout_value("Cc1nnc(-c2ccc(C)c(-c3ccc(C(=O)NCc4ccc(Cl)cc4)cc3)c2)o1")
-2.31
>>> readout_value("NC(=O)c1cc(-c2ccc(F)cc2)cc(-c2ccncc2)c1N")
2.42
>>> readout_value("Fc1ccc(-c2ncn(C3CCNCC3)c2-c2ccnc(Oc3ccc(F)c(F)c3)n2)cc1")
-1.26
>>> readout_value("COc1cc(C)c(N(C)C(=O)CN(C)C)cc1Nc1nc(Nc2cccc(F)c2C(N)=O)c2cc[nH]c2n1")
0.32
>>> readout_value("NS(=O)(=O)c1ccc(N/N=C2\\C(=O)Nc3ccc(-c4cnco4)cc32)cc1")
-0.39
>>> readout_value("COc1cccc(-n2cnc3c(N/N=C/c4ccncc4)ncnc32)c1")
29
>>> readout_value("CCc1nccc2c1nc(-c1nonc1N)n2CC")
1.88
>>> readout_value("COc1ccc(-c2ccc3c(NC(=O)C4CC4)n[nH]c3n2)cc1")
2.39
>>> readout_value("CCS(=O)(=O)c1ccc(OC)c(Nc2ncc(-c3cccc(-c4ccccc4F)c3)o2)c1")
13.7

====

// values below are reported inhibition
Target: Tyrosine-protein kinase SYK (Homo sapiens) (UniProt P43405)
Settings: at 1 µM
Description: GSK_PKIS: SYK mean inhibition at 1 uM [Nanosyn]
OBSERVABLE: inhibition (%)

>>> readout_value("CCS(=O)(=O)c1ccc(OC)c(Nc2ncc(-c3cccc(-c4ccccc4F)c3)o2)c1")
1.23
>>> readout_value("COc1ccc2ncn(-c3cc(O[C@H](C)c4ccccc4Cl)c(C(N)=O)s3)c2c1")
-3.45
>>> readout_value("CNC(=O)c1cncc(/C=C/c2c(C)cccc2C)c1")
-0.51
>>> readout_value("c1ccc(Oc2ccc(Nc3ncc(-c4ccccc4)o3)cc2)cc1")
2.28
>>> readout_value("COc1cc(C)c(N(C)C(=O)CN(C)C)cc1Nc1nc(Nc2cccc(F)c2C(N)=O)c2cc[nH]c2n1")
1.76
>>> readout_value("COc1ccc(C2=C(N3CCc4ccccc43)C(=O)NC2=O)cc1")
2.15
>>> readout_value("COc1cc(Nc2ncc3c(C)nc(-c4cccc(Oc5ccccc5)c4)n3n2)cc(OC)c1OC")
0.13
>>> readout_value("COc1cc(Nc2ncc(-c3ccccc3)o2)cc(OC)c1OC")
-1.68
>>> readout_value("COc1ccc(-c2ccc3c(NC(=O)C4CC4)n[nH]c3n2)cc1")
-2.02
>>> readout_value("O=C1Nc2ccc(I)cc2C1=Cc1cc(Br)c(O)c(Br)c1")
1.56
>>> readout_value("Cc1ccc(C(=O)NC2CCC2)cc1-c1ccc(C(=O)NCC2CC2)cc1")
0.85
>>> readout_value("Cc1ccc(C(=O)NC(C)C)cc1-c1ccc(C(=O)NCC2CC2)cc1")
-0.36
